- target-system: Trypsin-activated Cry1F toxin from Bacillus thuringiensis (Bacillus thuringiensis, UniProt Q03746 1-1174)
- Sequence (Q03746 28-612 limits assumed): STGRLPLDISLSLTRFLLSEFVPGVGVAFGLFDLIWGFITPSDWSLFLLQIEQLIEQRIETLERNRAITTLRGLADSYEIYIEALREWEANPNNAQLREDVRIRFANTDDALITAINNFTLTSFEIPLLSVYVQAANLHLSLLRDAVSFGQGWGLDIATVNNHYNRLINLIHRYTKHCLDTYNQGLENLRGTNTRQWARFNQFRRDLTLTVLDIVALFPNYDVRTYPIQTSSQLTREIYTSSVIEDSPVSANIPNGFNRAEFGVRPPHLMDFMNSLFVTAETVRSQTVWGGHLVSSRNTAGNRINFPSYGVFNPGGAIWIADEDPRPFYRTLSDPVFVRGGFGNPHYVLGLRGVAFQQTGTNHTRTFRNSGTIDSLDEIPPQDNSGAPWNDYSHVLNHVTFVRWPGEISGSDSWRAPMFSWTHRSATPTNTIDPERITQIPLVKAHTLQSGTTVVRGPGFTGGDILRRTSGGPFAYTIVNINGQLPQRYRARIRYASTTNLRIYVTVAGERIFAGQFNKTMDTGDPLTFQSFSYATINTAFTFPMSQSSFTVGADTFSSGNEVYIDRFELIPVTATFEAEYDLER
- assay-explanation: SPR; Biacore 8K; activated Cry1F immobilised on a CM5 chip (10 mM sodium acetate pH 4.0); analytes without His tag in 10 mM HEPES, 150 mM NaCl, 3 mM EDTA, 0.005% Tween-20, pH 7.4; 30 uL/min, association 120 s, dissociation 280 s; 1:1 binding model
- study-conditions: both partners purified
Catalogue of kon readings, one per entry.
endpoint-name: kon (M⁻¹ s⁻¹)

C-type mannose receptor 2-like (C-MR2), His tag removed (natural protein, Wild-type trypsin-activated core; the text prints neither the Cry1F subtype nor the limits. Cry1Fa assumed, with the conventional tryptic core 28-612.) SELNTSKSNWFRPDYSYSERTGGWFKFHSVPATWEDARLQCYYEGAELVSPFNENIIQKMIMLMDVNEPYIFTGIHSTFSKGVYTSVGGVPLHEMPVSLHSRDVSGNCVTMRSNGRVEARNCSSQYPYICFKKGPEHLTSSVCGADQEYKYEQRTGSCYKFHTLGRTWPQAFRVCVAEGGHLAIINSDVEADVIRGIFQNYPDDAFKADAKYAASIGFQGWGAVKIWWTIHGQTLQDAGYSKWDKFVPDMRSTRHYCGAVGRNGTLSHIECEGVTFPAICEKKADLV : 185000
C-type lectin lectoxin-Phi1-like (C-lectoxin), His tag removed (natural protein, Wild-type trypsin-activated core; the text prints neither the Cry1F subtype nor the limits. Cry1Fa assumed, with the conventional tryptic core 28-612.) DVPKDYIVNPNDSHGYKLMYHAKTWTEARDDCANVGAKLAVPKTRDQFEFIQKIVRSMQYQSIVGTEYKLLVWLGISNLKNYQVWANVDGENIEDTEFHTWAGQNGLKSENPAEPHCVGMDSMNFGLRDWWCHQRQPYICEILTVQNATQ : 110000
hemolymph lipopolysaccharide-binding protein (LBP), His tag removed (natural protein, Wild-type trypsin-activated core; the text prints neither the Cry1F subtype nor the limits. Cry1Fa assumed, with the conventional tryptic core 28-612.) QKRYRNDYVYDANTDAFYKFHVNMAVHWRALTICKLEGATLMVPTSVQQIAQVHGMFKQYPDIGHYVWIGDDNADHESAEETPIIDLQPEVETEAPWERRCLVLTRRGEIQTQNCRYYQSFVCMVEAKNAPYDHRCDVYAAGYEYNTDVKSCYKIPRDIKTWNAAYAECQAHGAHLVVVNSVTERDVLQALMSRTPYLRTSFSPYHYIAGIRATSVIGSEVVYRTIFNETLEEAGFSEWADNEPNNQQGIEYCGSLHQRSGKYNDISCLSSFGYICEKERNE : 24700
CD63 antigen-like (CD63) tetraspanin, His tag removed (natural protein, Wild-type trypsin-activated core; the text prints neither the Cry1F subtype nor the limits. Cry1Fa assumed, with the conventional tryptic core 28-612.) KGNAEALVQKQLYETMQLYTHDVVVTRLWDEVQEDFSCCGVNNASDWLAPLGTANTDQGLPLSCCQFPFGTITVFNCTMATPAPTLRTEGCSTAFGAWVQSHAGS : 16100
